# pIC50 values compiled below
Molecular target: Keap1/Nrf2 (Homo sapiens, UniProt Q14145+Q16236)
Sequence (Q16236 whole entry): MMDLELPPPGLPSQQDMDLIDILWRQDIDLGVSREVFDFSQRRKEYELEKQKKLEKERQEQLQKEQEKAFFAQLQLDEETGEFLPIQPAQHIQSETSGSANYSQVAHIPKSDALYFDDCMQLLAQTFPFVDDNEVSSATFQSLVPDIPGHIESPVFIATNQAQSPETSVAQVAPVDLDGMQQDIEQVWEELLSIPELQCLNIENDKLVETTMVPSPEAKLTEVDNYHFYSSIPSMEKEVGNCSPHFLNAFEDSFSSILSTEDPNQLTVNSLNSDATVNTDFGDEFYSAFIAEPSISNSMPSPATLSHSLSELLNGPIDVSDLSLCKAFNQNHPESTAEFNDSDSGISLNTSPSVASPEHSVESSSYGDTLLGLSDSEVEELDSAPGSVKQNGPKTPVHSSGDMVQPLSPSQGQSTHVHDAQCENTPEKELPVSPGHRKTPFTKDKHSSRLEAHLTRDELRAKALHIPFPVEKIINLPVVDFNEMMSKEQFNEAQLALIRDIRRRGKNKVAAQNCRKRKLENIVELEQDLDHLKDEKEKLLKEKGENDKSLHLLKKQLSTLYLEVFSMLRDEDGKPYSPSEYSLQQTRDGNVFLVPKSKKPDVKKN
Sequence (Q14145 whole entry): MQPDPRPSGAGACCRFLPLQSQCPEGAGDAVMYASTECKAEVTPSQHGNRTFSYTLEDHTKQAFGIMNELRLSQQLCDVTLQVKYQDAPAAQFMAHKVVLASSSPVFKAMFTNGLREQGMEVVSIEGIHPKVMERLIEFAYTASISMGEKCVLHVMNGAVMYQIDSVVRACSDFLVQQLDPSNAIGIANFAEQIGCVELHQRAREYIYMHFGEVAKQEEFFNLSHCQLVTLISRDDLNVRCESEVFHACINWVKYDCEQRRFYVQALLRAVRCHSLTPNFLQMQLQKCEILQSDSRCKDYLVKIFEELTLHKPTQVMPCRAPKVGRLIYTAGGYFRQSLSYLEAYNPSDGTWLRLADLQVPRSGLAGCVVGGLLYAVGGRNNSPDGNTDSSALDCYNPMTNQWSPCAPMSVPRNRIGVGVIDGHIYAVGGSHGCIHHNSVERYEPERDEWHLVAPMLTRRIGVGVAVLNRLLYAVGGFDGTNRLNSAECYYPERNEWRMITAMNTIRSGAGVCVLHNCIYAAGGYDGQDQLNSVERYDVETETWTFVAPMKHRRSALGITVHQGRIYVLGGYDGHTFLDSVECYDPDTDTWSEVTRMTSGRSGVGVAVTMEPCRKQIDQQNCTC
Experiment: Binding affinity to FLAG/His-tagged Keap1 (unknown origin)/biotinylated full-length FLAG/His/Tev/Avi-tagged NRF2 (unknown origin) expressed in baculovirus infected Sf9 insect cells measured after 1 hr by TR-FRET assay
For clarity, pIC50 is expressed as the negative log10 of concentration in mol/L.

Record summary for CN1CCC(SC(=S)NCCCCNC(=O)OCc2ccccc2Cl)CC1 : reported pIC50 = 5.40

Measured pIC50, O=S(=O)(CCCCN=C=S)c1ccccn1 : 4.50

Field pIC50 (entry CN1CCC(SC(=S)NCCCCS(=O)(=O)c2ccncc2)CC1 ) reads 4.00

Noted for CC(C)(C)OC(=O)N1CCC(SC(=S)NCCCCNC(=O)OCc2ccccc2Cl)CC1 : its pIC50 reads 5.60

pIC50 reading for CN1CCC(SC(=S)NCCCCNC(=O)CC2CCCC2)CC1 : 4.30

As a next step, examine the compound that follows.
Value of measured pIC50 for the entry CN1CCC(SC(=S)NCCCCNC(=O)NC2CCCC2)CC1 : 4.40

====

Experiment: Kinetic solubility of the compound at pH 7.4 by CLND method
Type: physicochemical
Conditions: buffer, read-out: Kinetic_solubility
PROPERTY_NAME: solubility kinetic

// solubility kinetic lookup, compound = O=C(NCCCCN=C=S)c1cccnc1 , result: ≥ 289 µM

So for CNC(=O)NCCCCNC(=S)SC1CCN(C(=O)OC(C)(C)C)CC1 , the logged solubility kinetic turned out to be ≥ 377 µM

Per the record, O=C(NCCCCN=C=S)c1ccncc1 has solubility kinetic of ≥ 358 µM

So for C[S+]([O-])CCCCNC(=S)SCCNC(=O)OC(C)(C)C (configuration not stated) , the logged solubility kinetic turned out to be ≥ 432 µM

Entry CN1CCC(SC(=S)NCCCCS(=O)(=O)c2ccncc2)CC1 , solubility kinetic reported as ≥ 419 µM

Input CN1CCC(SC(=S)NCCCCNC(=O)NC2CCCC2)CC1 . Output solubility kinetic: ≥ 245 µM

In the following, a different compound is considered.
Sure, the documented solubility kinetic for CN(C)CC[S+]([O-])CCCCN=C=S (configuration not stated) is ≥ 219 µM

====

Assay: Lipophilicity, log D of the compound at pH 7.4 by chromatographic method
Format: physicochemical
Conditions: buffer
Tick 1.0 if chromatographic logD is 2 or greater. Tick 0.0 if chromatographic logD is less than 2.

Textbook exercise: given the entry CC(=O)NCC[S+]([O-])CCCCN=C=S (stereo unspecified) , state whether its chromatographic logD is greater than or equal to 2.
0.0

Is reported chromatographic logD greater than or equal to 2 here: C[S+]([O-])CCCN=C=S (stereo unspecified)
0.0

Is the recorded value of chromatographic logD equal to or greater than 2 for this compound? [O-][S+](CCCCN=C=S)c1ccccn1 (stereo unspecified)
1.0

For this compound, is measured chromatographic logD 2 or higher? O=C(CCc1ccccc1)NCCCCN=C=S
1.0

Record CC(=O)NCCS(=O)(=O)CCCCN=C=S ; criterion: chromatographic logD no lower than 2. Met?
0.0

Is chromatographic logD at least 2? Consider O=C(O)C(F)(F)F.[O-][S+](CCCCN=C=S)CCN1CCOCC1 (stereo unspecified)
0.0

# check: chromatographic logD of O=S1(=O)CCC(CN=C=S)C1 (stereo unspecified) is greater than or equal to 2
0.0

Determine whether measured chromatographic logD meets or exceeds 2 for CN1CCC(SC(=S)NCCCCNC(=O)Nc2ccc3nccnc3c2)CC1
0.0

New cases:
Hello, I need to know if CC(=O)N(C)CCS(=O)(=O)CCCCN=C=S has measured chromatographic logD not below 2. Thanks!
1.0

Assess whether reported chromatographic logD for CN1CCC(SC(=S)NCCCCNC(=O)CC2CCCC2)CC1 sits at 2 or higher.
1.0

Where these numbers come from: ChEMBL document CHEMBL4330129
